Assay: Rat collagen-induced arthritis
Type: in vivo, female Wistar rat
Conditions: female, Wistar, rat, plasma, oral, 2 mg/kg/day; read-out: AUClast at efficacious dose
Measured Metric: AUC(0-t) (ng·h/mL)

# Compound, Measured Metric, Recorded Value
data = [
    ("C=CC(=O)N[C@H]1CCC[C@H]1NC(=O)c1sc2nccc3c2c1NC(=O)N3c1cnc(CC(C)C)cc1C (atropisomer, axis not shown)", "AUC(0-t)", 324),
]

====

Assay: Phase 1 first-in-human study, plasma pharmacokinetics
Type: in vivo
Conditions: both sexes, human, plasma, po, 100 mg, 100 mg QD oral solution, fed, Day 10

# Compound, Cmax [ng/mL]
measured = [
    ("C=CC(=O)N[C@H]1CCC[C@H]1NC(=O)c1sc2nccc3c2c1NC(=O)N3c1cnc(CC(C)C)cc1C (atropisomer, axis not shown) [compound of Formula (III)]", 424),
]

Source of measurements: patent US12622910B2
